The following compounds are shown together with reported MIC values.
Tested on: S. epidermidis ATCC 12228
protocol: MIC determination, S. epidermidis ATCC 12228
Format: cell-based, Staphylococcus epidermidis
measurement_conditions: Staphylococcus epidermidis, ATCC12228, Table 1; read-out: MIC S. epidermidis ATCC 12228

Answered examples (4):
Please look up its MIC: "O=C(O)c1cc(O)c2ccccc2n1"
1 µg/mL

Requested field: MIC. Item: N#Cc1ccc(O)c2ncccc12 [Compound 21, 5-cyano-8-hydroxyquinoline]
4 µg/mL

Tell me the measured MIC of "Oc1ccc(Cl)c2cccnc12" , please.
1 µg/mL

Fill in: MIC of CC[C@H]1OC(=O)[C@H](C)[C@@H](O[C@H]2C[C@@](C)(OC)[C@@H](O)[C@H](C)O2)[C@H](C)[C@@H](O[C@@H]2O[C@H](C)C[C@H](N(C)C)[C@H]2O)[C@](C)(O)C[C@@H](C)C(=O)[C@H](C)[C@@H](O)[C@]1(C)O [Erythromycin, reference compound] is ___
0.5 µg/mL

Continuing:
Report MIC for Cc1onc(-c2ccccc2Cl)c1C(=O)N[C@@H]1C(=O)N2[C@@H]1SC(C)(C)[C@@H]2C(=O)O [Cloxacillin, reference compound] please.
0.25 µg/mL

Source of measurements: patent US7390806B2
